MEASURED_ON: recombinant N-terminal GST-tagged human Rho kinase 2 (ROCK2, amino acids 1-552) (Homo sapiens, UniProt O75116)
Construct: ROCK2, amino acids 1-552; purchased Invitrogen Inc. PV3759
Sequence (O75116 1-552): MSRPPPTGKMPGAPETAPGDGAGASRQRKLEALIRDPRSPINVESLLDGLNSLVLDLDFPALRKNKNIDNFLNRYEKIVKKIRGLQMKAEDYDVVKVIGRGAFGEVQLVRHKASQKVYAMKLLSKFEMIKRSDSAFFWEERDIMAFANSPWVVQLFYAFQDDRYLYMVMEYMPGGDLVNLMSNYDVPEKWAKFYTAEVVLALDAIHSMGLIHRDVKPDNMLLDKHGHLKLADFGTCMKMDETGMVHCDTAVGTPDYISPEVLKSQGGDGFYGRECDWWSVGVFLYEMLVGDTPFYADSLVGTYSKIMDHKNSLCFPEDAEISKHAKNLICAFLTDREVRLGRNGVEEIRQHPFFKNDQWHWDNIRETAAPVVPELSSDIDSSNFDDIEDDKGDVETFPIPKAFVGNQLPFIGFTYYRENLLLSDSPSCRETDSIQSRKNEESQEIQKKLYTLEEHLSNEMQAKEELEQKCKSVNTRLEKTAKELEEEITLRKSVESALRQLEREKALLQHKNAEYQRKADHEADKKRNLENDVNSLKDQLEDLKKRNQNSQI
TEST: In vitro Rho kinase assay (luciferase-based ATP consumption), ROCK2
Assay type: biochemical
RECORDED_CONDITIONS: recombinant GST-tagged human ROCK2, luciferase-based ATP consumption; read-out: ROCK2 IC50
pIC50: −log10 of the molar value.
ENDPOINT_LABEL: pIC50

Cc1c(-c2ccnc(N)n2)sc2ccc(C(=O)N(C)CC(O)c3ccccc3)cc12 (centres unmarked) [Example 507] = > 5.30
Cc1c(-c2ccnc(N)n2)sc2ccc(CNC(=O)Cc3ccc4c(c3)OCO4)cc12 [Example 212] = > 5.30
Cc1c(-c2ccnc(N)n2)sc2ccc(C(=O)NCCC(c3ccccc3)c3ccccc3)cc12 [Example 457] = < 5.30
Cc1c(-c2ccnc(N)n2)sc2ccc(C(=O)NCCC3CCCN3C)cc12 (centres unmarked) [Example 386] = > 5.30
Cc1c(-c2ccnc(N)n2)sc2ccc(C(=O)N3C(C)CCCC3C)cc12 (centres unmarked) [Example 483] = < 5.30

Consider the compound Cc1c(-c2ccnc(N)n2)sc2ccc(CNC(=O)c3cccc(F)c3F)cc12 [Example 154] and give its measured pIC50.
> 5.30

Consider the compound Cc1c(-c2ccnc(N)n2)sc2ccc(CNC(=O)c3ccc(Oc4ccccc4)cc3)cc12 [Example 284] and give its measured pIC50.
> 5.30

Consider the compound CCCCN(Cc1ccccc1)C(=O)c1ccc2sc(-c3ccnc(N)n3)c(C)c2c1 [Example 515] and give its measured pIC50.
< 5.30

* * *

MEASURED_ON: recombinant N-terminal GST-tagged human Rho kinase 2 (ROCK2, amino acids 1-552) (Homo sapiens)
Construct: ROCK2, amino acids 1-552; purchased Invitrogen Inc. PV3759
TEST: In vitro Rho kinase assay (luciferase-based ATP consumption), ROCK2
Assay type: biochemical
RECORDED_CONDITIONS: recombinant GST-tagged human ROCK2, luciferase-based ATP consumption; read-out: ROCK2 IC50
ENDPOINT_LABEL: IC50

Sample answers from the record:
Cc1c(-c2ccnc(N)n2)sc2ccc(CNC(=O)c3ccc4cc(O)ccc4c3)cc12 = < 5 µM
Cc1c(-c2ccnc(N)n2)sc2ccc(Nc3ccccc3)cc12 = < 5 µM
COC(=O)c1ccc(C(=O)Nc2cccc(Nc3ccc4sc(-c5ccnc(N)n5)c(C)c4c3)c2)cc1 = < 5 µM
Cc1ccc([C@@H](C)NC(=O)c2ccc3sc(-c4ccnc(N)n4)c(C)c3c2)cc1 = > 5 µM
COc1ccc([N+](=O)[O-])c(C(=O)NCc2ccc3sc(-c4ccnc(N)n4)c(C)c3c2)c1 = < 5 µM

Consider the compound Cc1c(-c2ccnc(N)n2)sc2ccc(Oc3cccc([N+](=O)[O-])c3)cc12 and give its measured IC50.
< 5 µM

Consider the compound CC(=O)Oc1ccc(C(=O)Nc2cccc(Nc3ccc4sc(-c5ccnc(N)n5)c(C)c4c3)c2)cc1 and give its measured IC50.
< 5 µM

Consider the compound Cc1cc(C)cc(C(=O)NCc2ccc3sc(-c4ccnc(N)n4)c(C)c3c2)c1 and give its measured IC50.
> 5 µM

Consider the compound Cc1cccc(C(=O)NCc2ccc3sc(-c4ccnc(N)n4)c(C)c3c2)c1 and give its measured IC50.
> 5 µM

Consider the compound CCN(CC)CCNC(=O)c1cccc(Cc2ccc3sc(-c4ccnc(N)n4)c(C)c3c2)c1 and give its measured IC50.
< 5 µM

Consider the compound Cc1c(-c2ccnc(N)n2)oc2ccccc12 and give its measured IC50.
< 5 µM

Consider the compound Cc1ccc([N+](=O)[O-])c(C(=O)NCc2ccc3sc(-c4ccnc(N)n4)c(C)c3c2)c1 and give its measured IC50.
< 5 µM

* * *

MEASURED_ON: recombinant N-terminal GST-tagged human Rho kinase 2 (ROCK2, amino acids 1-552) (Homo sapiens)
Construct: ROCK2, amino acids 1-552; purchased Invitrogen Inc. PV3759
TEST: In vitro Rho kinase assay (luciferase-based ATP consumption), ROCK2
Assay type: biochemical
RECORDED_CONDITIONS: recombinant GST-tagged human ROCK2, luciferase-based ATP consumption; read-out: ROCK2 IC50
pIC50: −log10 of the molar value.
ENDPOINT_LABEL: pIC50

Cc1c(-c2ccnc(N)n2)sc2ccc(CNC(=O)C(C)(C)C)cc12 = > 5.30
COc1ccc(C(=O)NCc2ccc3sc(-c4ccnc(N)n4)c(C)c3c2)c(OC)c1 = > 5.30
Cc1c(-c2ccnc(N)n2)sc2ccc(C(=O)N3CCc4ccccc4C3)cc12 = > 5.30

Consider the compound Cc1c(-c2ccnc(N)n2)sc2ccc(Nc3cccc(N)c3)cc12 and give its measured pIC50.
> 5.30

Consider the compound CCN(CCCCO)C(=O)c1ccc2sc(-c3ccnc(N)n3)c(C)c2c1 and give its measured pIC50.
> 5.30

* * *

Measured pIC50 of individual entries
MEASURED_ON: recombinant N-terminal GST-tagged human Rho kinase 1 (ROCK1, amino acids 1-535) (Homo sapiens)
Construct: ROCK1, amino acids 1-535; purchased Invitrogen Inc. PV-3691
Sequence (Q13464 1-535): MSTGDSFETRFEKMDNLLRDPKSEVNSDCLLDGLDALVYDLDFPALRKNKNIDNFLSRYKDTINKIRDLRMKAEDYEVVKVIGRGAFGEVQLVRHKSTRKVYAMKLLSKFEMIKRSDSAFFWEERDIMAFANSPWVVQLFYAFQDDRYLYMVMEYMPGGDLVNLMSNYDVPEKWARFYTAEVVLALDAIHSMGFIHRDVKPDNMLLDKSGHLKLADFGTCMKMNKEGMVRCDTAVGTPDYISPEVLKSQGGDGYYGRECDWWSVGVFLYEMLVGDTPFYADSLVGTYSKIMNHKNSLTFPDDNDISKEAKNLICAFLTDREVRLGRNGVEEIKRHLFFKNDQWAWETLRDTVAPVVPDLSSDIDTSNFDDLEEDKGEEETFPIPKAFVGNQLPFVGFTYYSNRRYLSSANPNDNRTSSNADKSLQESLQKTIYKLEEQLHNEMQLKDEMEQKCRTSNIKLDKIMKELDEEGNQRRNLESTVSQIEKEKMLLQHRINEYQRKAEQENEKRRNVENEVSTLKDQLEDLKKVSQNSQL
TEST: In vitro Rho kinase assay (luciferase-based ATP consumption), ROCK1
Format: biochemical
RECORDED_CONDITIONS: recombinant GST-tagged human ROCK1, luciferase-based ATP consumption; read-out: ROCK1 IC50
pIC50: −log10 of the molar value.

Sample answers from the record:
Cc1c(-c2ccnc(N)n2)sc2ccc(CNC(=O)c3c(F)cccc3F)cc12 [Example 153] = > 5.30
Cc1c(-c2ccnc(N)n2)sc2ccc(CNC(=O)C(C)(C)C)cc12 [Example 100] = > 5.30
Cc1c(-c2ccnc(N)n2)sc2ccc(CNC(=O)C=Cc3ccc4c(c3)OCO4)cc12 [Example 249] = < 5.30
Cc1c(-c2ccnc(N)n2)sc2ccc(C(=O)N3CCC(NC(=O)OC(C)(C)C)C3)cc12 (stereo not drawn) [Example 22] = < 5.30
Cc1c(-c2ccnc(N)n2)sc2ccc(CNC(=O)c3cncc(Br)c3)cc12 [Example 271] = < 5.30

We now examine a further compound.
Consider the compound Cc1c(-c2ccnc(N)n2)sc2ccc(CNC(=O)C(Cl)(Cl)Cl)cc12 [Example 160] and give its measured pIC50.
> 5.30

* * *

MEASURED_ON: recombinant N-terminal GST-tagged human Rho kinase 2 (ROCK2, amino acids 1-552) (Homo sapiens, UniProt O75116)
Construct: ROCK2, amino acids 1-552; purchased Invitrogen Inc. PV3759
TEST: In vitro Rho kinase assay (luciferase-based ATP consumption), ROCK2
Type: biochemical
RECORDED_CONDITIONS: recombinant GST-tagged human ROCK2, luciferase-based ATP consumption; read-out: ROCK2 IC50
ENDPOINT_LABEL: IC50

Sample answers from the record:
Cc1c(-c2ccnc(N)n2)sc2ccc(C(=O)NC3CONC3=O)cc12 (stereo not shown) = < 5 µM
COc1cccc(OC)c1C(=O)NCc1ccc2sc(-c3ccnc(N)n3)c(C)c2c1 = < 5 µM
Cc1c(-c2ccnc(N)n2)sc2ccc(Cc3cccc(C(=O)Nc4ccc(OCCN5CCCCC5)cc4)c3)cc12 = < 5 µM

We now examine a further molecule.
Consider the molecule Cc1c(-c2ccnc(N)n2)sc2ccc(C(=O)O)cc12 and give its measured IC50.
> 5 µM

* * *

MEASURED_ON: recombinant N-terminal GST-tagged human Rho kinase 2 (ROCK2, amino acids 1-552) (Homo sapiens)
Construct: ROCK2, amino acids 1-552; purchased Invitrogen Inc. PV3759
TEST: In vitro Rho kinase assay (luciferase-based ATP consumption), ROCK2
Type: biochemical
RECORDED_CONDITIONS: recombinant GST-tagged human ROCK2, luciferase-based ATP consumption; read-out: ROCK2 IC50
pIC50: −log10 of the molar value.
ENDPOINT_LABEL: pIC50

Cc1c(-c2ccnc(N)n2)sc2ccc(C(=O)N3CCCCC3CCO)cc12 (centres unmarked) [Example 497] = < 5.30

Consider the molecule Cc1c(-c2ccnc(N)n2)sc2ccc(C(=O)N(C)Cc3ccccc3)cc12 [Example 492] and give its measured pIC50.
> 5.30

Consider the molecule COc1cccc(Sc2ccc3sc(-c4ccnc(N)n4)c(C)c3c2)c1 [Example 83] and give its measured pIC50.
> 5.30

Consider the molecule Cc1c(-c2ccnc(N)n2)sc2ccc(C(=O)N(CCCO)Cc3ccccn3)cc12 [Example 517] and give its measured pIC50.
> 5.30

Consider the molecule Cc1c(-c2ccnc(N)n2)sc2ccc(C(=O)N(Cc3cccnc3)Cc3cccnc3)cc12 [Example 547] and give its measured pIC50.
> 5.30

* * *

MEASURED_ON: recombinant N-terminal GST-tagged human Rho kinase 2 (ROCK2, amino acids 1-552) (Homo sapiens)
Construct: ROCK2, amino acids 1-552; purchased Invitrogen Inc. PV3759
TEST: In vitro Rho kinase assay (luciferase-based ATP consumption), ROCK2
Format: biochemical
RECORDED_CONDITIONS: recombinant GST-tagged human ROCK2, luciferase-based ATP consumption; read-out: ROCK2 IC50
pIC50: −log10 of the molar value.
ENDPOINT_LABEL: pIC50

Sample answers from the record:
Cc1c(-c2ccnc(N)n2)sc2ccc(CNC(=O)CC(C)C)cc12 [Example 101] = > 5.30
Cc1c(-c2ccnc(N)n2)sc2ccc(CNC(=O)c3cccc(Br)n3)cc12 [Example 270] = > 5.30
Cc1c(-c2ccnc(N)n2)sc2ccc(C(=O)NCCCn3ccnc3)cc12 [Example 385] = > 5.30

Consider the compound Cc1c(-c2ccnc(N)n2)sc2ccc(CNC(=O)c3cccs3)cc12 [Example 34] and give its measured pIC50.
> 5.30

Consider the compound COc1cc(C(=O)Nc2ccc3sc(-c4ccnc(N)n4)c(C)c3c2)cc(OC)c1OC [Example 73] and give its measured pIC50.
< 5.30

Consider the compound Cc1c(-c2ccnc(N)n2)sc2ccc(CNC(=O)c3cc(F)cc(F)c3)cc12 [Example 156] and give its measured pIC50.
> 5.30

Consider the compound CCOC(=O)CC(C)NC(=O)c1ccc2sc(-c3ccnc(N)n3)c(C)c2c1 (centres unmarked) [Example 390] and give its measured pIC50.
> 5.30

Consider the compound Cc1c(-c2ccnc(N)n2)sc2ccc(C(=O)NCc3ccc(F)cc3F)cc12 [Example 412] and give its measured pIC50.
> 5.30

Cited source for all entries: patent US20080021026A1
